- target_or_test_system: T1, PLCγ1-SH3 domain (aa 790-851) fused to F1 fragment of Renilla luciferase, P19174
- T1 chain: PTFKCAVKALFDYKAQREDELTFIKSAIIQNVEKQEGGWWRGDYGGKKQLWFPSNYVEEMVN
- procedure_summary: Renilla luciferase protein-fragment complementation assay in non-permeabilized HEK cells (CID-CD95-F2 / PLCγ1-SH3-F1), peptide 4 h; displaces CID-CD95
reported_property: IC50 (µM)

[
  {
    "binder": "TCRKHRK (modifications not checked) [minCID (minimal CID, amino acids 182 to 188 of CD95, TCRKHRK)]",
    "reported_property": "IC50",
    "units_label": "µM",
    "result_value": 35.5
  }
]
